- Assay Name: growth suppression of yeast trafficking mutant, preliminary HTS, modulators of trafficking downstream of Golgi apparatus project, 1536-format plate, OD 615 nm (AID 637)
- Assay Context: yeast transport mutant growth, absorbance 615 nm, 18 h; stronger effect = higher value
Readout Kind: inhibition (%)
State just the number; it will be interpreted in %.

Known results for compounds:
Compound	Units Text	inhibition
COc1ccc(-c2nc(SC)n(S(=O)(=O)c3ccccc3)n2)cc1	%	-10.8
C=CCn1c(Cc2csc(N)n2)nnc1SCC(=O)OCC	%	-6.67

API: the following record is the query input.
Reported inhibition for Cn1c(=O)[nH]c(=O)c2c1nc(Br)n2CCCSc1nc2ccccc2o1 was -4.55

###

- Assay Name: growth inhibitors of H69AR lung tumor, primary screen, human, duplicate replicates (AID 580);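 also: 100% = mean luminescence of untreated wells and 0% = no signal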
- Assay Context: H69AR lung tumor cells viability, ATP luminescence, 72 h; at 10 µM; stronger effect = lower value
Measured viability values are reported for all entries that follow.
Give the number; % is assumed, so skip it.

The cases that follow already have their viability on record.
Compound	Units Text	viability
Cc1nc(C)c(C(=O)OCC(=O)N2CCN(c3ccccc3)CC2)s1	%	95.8
O=C(CSc1nnc(-c2ccccc2)o1)N1CCN(c2ccccc2)CC1	%	98.3
CCc1ccc2[nH]c(=O)c(C(c3nnnn3CC3CCCO3)N3CCN4CCCC4C3)cc2c1 (stereo unspecified)	%	105
CC1CCN(CCCNC(=O)c2coc3nc4ccccc4nc23)CC1	%	92.9

Just so you know, measured viability for COc1cc(C(=O)NCC(=O)OCC(=O)c2ccc[nH]2)cc(OC)c1OC came out at 91.5

viability for COc1ccc(C(=O)NCCC(C)C)cc1S(=O)(=O)N1CCOCC1 is 102

###

Let's look at some compounds and their measured viability.
- Assay Name: SK-BR-3 cell growth inhibitors, pilot screen, 24 h, human (AID 572);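 also: compound exposure lasted between 18 and 24 h rather than exactly 24 h; 100% = carrier-treated control wells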
- Assay Context: SK-BR-3 viability, CellTiter-Glo luminescence, at 10 µM, stronger effect = lower value
Response body: numeric value in %, unit text excluded.

// viability value for O=C(CSc1nc2ccccc2nc1SCC(=O)N1CCOCC1)N1CCOCC1 : 100

get_value(item= Cn1c(Cc2ccccc2)nnc1SCC(=O)N1CCOCC1 , readout=viability) returns 91

Record Cc1c(C)[n+](=O)c2c(n1[O-])CCCCC2 , field viability: 89

compound CC(C)Cc1nc(N2CCN(C(=O)c3ccco3)CC2)c(C#N)c2c1CCC2 , viability observed: 172

// viability value for COc1ccc(-c2nsc(SCC(=O)Nc3cc(C)on3)n2)cc1 : 79

Looking up Clc1ccc(OCCCn2cncn2)cc1Cl , I found its viability recorded as 104

The recorded viability for entry COc1cccc(NC(=O)c2ccccc2NS(C)(=O)=O)c1 equals 86

Lab note: Cc1ccccc1-n1nc(C)c2cc(C(=O)NCc3cccnc3)sc21 gave viability of 126

Documented viability of COC(=O)c1[nH]c(C)c(/C(O)=C2\C(=O)C(=O)N(CCN(C)C)C2c2ccccc2OC)c1C (stereo not drawn) : 88

For this compound ( CC(C)N(Cc1nc(-c2ccccc2)no1)C(=O)CCCN1C(=O)c2ccccc2C1=O ), measured viability is 104

The compound listed as Clc1ccc(-c2nnc3sc(-c4ccc(Br)o4)nn23)cc1 has a reported viability of 128
